# protocol-description: yeast display, Sf9 membrane polyspecificity reagent, FACS + sequencing; frameworks hold sequencing errors

{"entry-sequence": "QVQLVESGGGLVQAGGSLRLSCAASGSTFAYYAMGWYRQAPGKERELVAAITIDGRTSYADSVKGRFTISRDNAKNTVYLQMNSLKAEDTAVYYCAADSSAWLYDYWGQGTQVTVSS", "polyreactivity (PSR sort gate)": "low polyreactivity"}
{"entry-sequence": "QVQLVESGGGLVQAGGSLRLSCAASGSTFYFNAMGWYRQAPGKERELVAGITYSGDSTYYADSVKGRFTISRDNAKNTVYLQMNSLKPEDTAVYYCAADVDYDLDGDYWGQGTQVTVSS", "polyreactivity (PSR sort gate)": "low polyreactivity"}

----------
# protocol-description: yeast display, Sf9 membrane polyspecificity reagent, FACS + sequencing; frameworks hold sequencing errors

{"entry-sequence": "QVQHVESGGGLVQAGGSLRLSCAASGRTFFANAMGWYRQAPGKERELVAAITSNTGSTYYADSVKGRFTISRDNAKNTVYLQMNSLKPEDTAVYYCAARGSPRKWTFHYYYWGQGTQVTVSS", "polyreactivity (PSR sort gate)": "high polyreactivity"}
{"entry-sequence": "QVHLVESGGGLVQAGGSLRLSCAASGSIFSGYAMGWYRQAPGKEREFVAAISSSGGRTYYADSVKGRFTISRDNAKNTVYLQINSLKPEDTAVYYCNARRWPFNYDYWGQGTQVTVSS", "polyreactivity (PSR sort gate)": "high polyreactivity"}

----------
# protocol-description: yeast display, Sf9 membrane polyspecificity reagent, FACS + sequencing; frameworks hold sequencing errors
measured-quantity: polyreactivity (PSR sort gate)

{"entry-sequence": "QVQLVESGGGLVQAGVSLRLSCAASGLIFGQNAMGWYRQAPAKERELVAAISQRGGTYYADSVKGRFTISRDNSKNTVYLQMNSLKPEDTAVYYCAARVGLQPGRYYLRYDYWGQGTQVTVSS", "polyreactivity (PSR sort gate)": "low polyreactivity"}
{"entry-sequence": "QVQLVESGGGLVQAGGSLRLSCAASGRTFGRNAMGWYRQAPGKVRELVAAINSDGSTYYADSVKGRFTISRDNAKNTVYLQMNSLKPEDTAVYYCAADTWVWTDYFRRFEYWGQGTQVTVSS", "polyreactivity (PSR sort gate)": "high polyreactivity"}
{"entry-sequence": "QVQLVESGGGLVQAGGSLRLSCAASGNTFYYAMGWYTQAPGKERELVASIRTGGSTNYADSVKGRFTISRDNAKNTVYLQMNSLKPEDTAVYYCNRDGTYSHTGWDYWRPYEYWGQGTQVTVSS", "polyreactivity (PSR sort gate)": "low polyreactivity"}
{"entry-sequence": "QVQLVESGGGLVQAGGSLRLSCAASGRTFFIYAMGWYRQAPGKERELVARITGGGRTYYADSVKGRFTISRDNAKNTVYLQMNSLKPEDTAVYYCAKRSYVTYPPYDYWGQGSQVTVSS", "polyreactivity (PSR sort gate)": "high polyreactivity"}
{"entry-sequence": "QVQLVESGGGLVQAGGSLRLICAASGLIFVRNVMGWYRQAPGKERELVAAINLSTGSTYYADSVKGRFTISRDNAKNTVYLQMNCLKPEDTAVYYCAAEYLYWDDLQDYEYWGQGTQVTVSS", "polyreactivity (PSR sort gate)": "low polyreactivity"}
{"entry-sequence": "QVQLVESGGGLVQAGGSLRLSCAAAGNTIRVNAMGWYRHAHGKERELVAAISFSGGRTYYADSVKGRFTISRDNAKNTVYLQMNSLKPEDTAVYYCAALRRYPRPNIYGYWGQGTQVTVSS", "polyreactivity (PSR sort gate)": "low polyreactivity"}
{"entry-sequence": "QVQLVESGGGLVQAGGSLSLSCAASAHTFVTNAMGWYRQAPGKERELVAAISRSGGHTYYADSVKGRFTISRDNAKNTVYLQMNSLKPEDTAVYYCAKTRGPRTLYDYWGQGTQVTVSS", "polyreactivity (PSR sort gate)": "high polyreactivity"}
{"entry-sequence": "QVQLVESGGGLVQAGGSLRLSCAAYGITFDANAMGWYRQAPGKERELVARISSGGSTNYADSVKGRFTISRDNAKNTVYLQMNSLKPEDTAVYYCAAERIARPTFDYWGQGTQVTVSS", "polyreactivity (PSR sort gate)": "low polyreactivity"}

QUERY: Entry under review: QVQLVESGGGLVQAGGSLRLSCAASGRIFVRYAMGWYRQAPGKERELVAGITSGSRTNYADSVKGRFTISRDNAKNTVYLQMNSLKPEDTAVYYCNARVFRYYGIFDYWGQGTQVTVSS . Reported polyreactivity (PSR sort gate)?
RESULT: high polyreactivity

QUERY: What do you get for QVQLLDSGGGLVQAGGSLRLSCAASGLILVPNTMGWYRQAPGKERELVADIRSGGTTNYADSVKGRFTISRDNAKNTVYLVMNSLKPEDTAVSYCAKEKYDYVGDYEVDYWGHGTQVTVSS ?
RESULT: low polyreactivity

QUERY: What do you get for QVQLVESGGGLVQAGGSLRLSCAASGRTFDGNVMGWYRQAPGKERELVAAITASGGRTYYADSVKGRFTISRDNAKNTVYLQMNSLKPEDTAVYFCAADPTYLRTLRFGSYDYWGQGTQVTVSS ?
RESULT: high polyreactivity

QUERY: What do you get for QVQLVESGGGVVQAGGSLRLSCAASGRTSYWYAKGCYRQAPGKERELVADISWSGGSTYYADSVKGRFTISRDNAKNTVYLQMNSMKPEDTAVYYCNAAEQKYSIYYAFDTGPYDYWGQGTQVTVSS ?
RESULT: low polyreactivity

QUERY: What do you get for QVQLVESGGGLVQAGGSLRLSCAASGSTFYINAMGWYRQAPGKERELVAAISWSTTITYYADSVKGRFTISRDNAKNTVYLQMNSLKPEDTAVYYCAAEEEYWDYSGGGYWGQGTQVTVSS ?
RESULT: high polyreactivity

QUERY: What do you get for QVQLVESGGGLVQAGGSLRLICAASGRIFKLYAMGWYRQAPGKERELVASINSGGGSTNYADSVKGRFTISRDNAKNTVYLQMNSLKPEDPAVYYCAKCYRRVYGPFFYWGQGTQVTVSS ?
RESULT: low polyreactivity

QUERY: What do you get for QVQLVESGGGLVQAGGSLRLSCAASGSTFHRYTMGWYRQAPGKERELVAAISSGGRTYYADSVKGRFTISRDNAKNTVYLQMNSLKPEDTAVYYCNSRYPRQYWGGYDYWGQGTQVTVSS ?
RESULT: high polyreactivity

QUERY: What do you get for QVQLVESGGGLVQAGGSLRISCAASGSIFDLNAMGWYRQAPGKERELVAAISSGGRTTYADSVKGRFTISRDNAKNTVYLQMNSLKPEDTAFYYCNAVGDVFPRTGPIYDYWGQGSQVTVSS ?
RESULT: high polyreactivity

QUERY: What do you get for QVQLVESGGGLVQAGGSLRLSCAASGSTFKPYTMGWYRQAPGKERELVAGISSVDSTDYADSVKGRFTISRDNAKNTVYLQMNSLKPEDTAVYYCNKRKWPTFTYAMNYWGQGTQVSVSS ?
RESULT: low polyreactivity

QUERY: What do you get for QVQLVESGGALVQAGGSLRLSCAASGSIFVYNAMGWYIPAPGKERELVAAITSDGSTNYADSVKGRFTISRDNATNTVYLQMNSLKPEDNAVYYCNAGNDQYPSFEYDYWGQGTKVTVSS ?
RESULT: low polyreactivity

QUERY: What do you get for QVQLVESGGGLVQAGGSLRLSCAASGRTFVPYAMGWYRQAPGKERELVAAISSGGDTNYADSVKGRFTISRDNAKNTVYLQMNSLKPEDSAVYYCAKDLTQIYYGDDYWGQGTQVTVSS ?
RESULT: low polyreactivity

QUERY: What do you get for QVQLVESGGGLVQAGGSLRLSCAASGSIFWWYTMGRYRQAPGKERELVAAITWNADGTYYADSVKGRFTISRDNAKNTVYLQMNSLKPEDTAVYYCAADQYYLDWGGGYDYWGQGPQVTVSS ?
RESULT: low polyreactivity

QUERY: What do you get for QVQLLESGGGLDQAGGSLRLSCAAYGRIFGPNAMGWYRQAPGKERELVAAISWSGGTTRYADSVKGRFTISRDNAKNSVYLQMNSQKPEDTAVYYCAASADDRRSGKRYDSWGHGTQVTVSS ?
RESULT: high polyreactivity

----------
# protocol-description: yeast display, Sf9 membrane polyspecificity reagent, FACS + sequencing; frameworks hold sequencing errors
measured-quantity: polyreactivity (PSR sort gate)

Please review the following examples before continuing.
{"entry-sequence": "QVQLVESGGGLVQAGGSLRLSCAASGSIFGYYAMGWYRQARGNERELGAAIRSTGSTNYADSVKGRFTISRDNAQNTVYLQMNSLKPEDTAVYYCAAGDITGGSGNWVVTPYDYGGQGTQVTVSS", "assay-value": "high polyreactivity"}
{"entry-sequence": "QVQLVESGGGLVQAGCSLRLSCAASGRILFGYAMGWYRQAPGKERELVAAITGSGDSTYYADSVKGRFTISRDNAKNAVYLQLYSLKPEDTAVYYCATEEVYGQGNYWGHGTQVTVSS", "assay-value": "low polyreactivity"}
{"entry-sequence": "QVQLVESGGGLVQAGGSLRLSCSASGRIFVIYDMGWYRQAPGKEWEFVAAISWRTGSTYYADSVKGRFTISRDNAKNTVYLQMNSLKPEDTAVYYCAASIGLVHYDYWGQGTQVTVSS", "assay-value": "low polyreactivity"}
{"entry-sequence": "QGQLVESGGGLVQAGGSLRLSCAASGRIFYGNVMGWYRQAPGKERELVADISYDGGSTYYADSVKGRFTISRDNAKNTVYLQMNSLKPEDTAVYYCNKREVFIYGTTYDYWGQGTQVTVSS", "assay-value": "low polyreactivity"}

QUERY: Entry under review: QVQLVESGGGLVQAGGSLRLSCAASGRLFRHNAMGWYRQAPGKERELVAVISRSTGSTYYADSVKGRFTISRYNAKNTVYLQMNSLKPEDTAVYYCDAKYGSGQRYDYWGQGTQVTVSS . Reported polyreactivity (PSR sort gate)?
RESULT: high polyreactivity
